STUDY TARGET: human TLR8 (Homo sapiens (Human), UniProt Q9NR97)
Sequence (Q9NR97 27-1041): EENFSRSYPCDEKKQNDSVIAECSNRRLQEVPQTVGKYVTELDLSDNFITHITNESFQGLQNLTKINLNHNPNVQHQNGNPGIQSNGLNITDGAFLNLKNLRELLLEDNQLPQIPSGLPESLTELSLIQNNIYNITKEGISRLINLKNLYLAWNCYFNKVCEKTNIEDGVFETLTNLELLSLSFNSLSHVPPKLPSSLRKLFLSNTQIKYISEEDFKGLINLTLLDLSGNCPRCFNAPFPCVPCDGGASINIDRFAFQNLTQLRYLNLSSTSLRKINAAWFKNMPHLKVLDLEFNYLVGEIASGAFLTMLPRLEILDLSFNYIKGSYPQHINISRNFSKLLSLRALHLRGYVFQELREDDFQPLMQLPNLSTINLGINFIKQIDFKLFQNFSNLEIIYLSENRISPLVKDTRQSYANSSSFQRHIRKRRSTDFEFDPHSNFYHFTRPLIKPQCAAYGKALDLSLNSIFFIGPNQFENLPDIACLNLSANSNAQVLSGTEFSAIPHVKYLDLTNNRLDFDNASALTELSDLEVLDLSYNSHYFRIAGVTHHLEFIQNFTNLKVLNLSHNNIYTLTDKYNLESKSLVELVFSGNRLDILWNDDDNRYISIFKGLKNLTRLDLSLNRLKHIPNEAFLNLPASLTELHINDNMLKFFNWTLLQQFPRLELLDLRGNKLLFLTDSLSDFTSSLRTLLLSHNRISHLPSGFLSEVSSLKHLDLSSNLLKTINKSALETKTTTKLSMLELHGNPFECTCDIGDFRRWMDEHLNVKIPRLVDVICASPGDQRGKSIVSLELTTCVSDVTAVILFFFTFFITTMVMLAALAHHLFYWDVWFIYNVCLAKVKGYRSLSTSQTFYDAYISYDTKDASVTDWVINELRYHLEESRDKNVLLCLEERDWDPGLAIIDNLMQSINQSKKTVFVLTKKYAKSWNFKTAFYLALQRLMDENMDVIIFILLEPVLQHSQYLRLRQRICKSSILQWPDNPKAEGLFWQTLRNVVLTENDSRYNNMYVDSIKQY
EXPERIMENTAL PROTOCOL: TLR8 inhibition reporter assay (HEK-Blue SEAP);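 note: SEAP driven by IFN-β minimal promoter carrying NF-κB and AP-1 sites, compounds dosed 0.05 nM to 50 µM for 22 h, inhibition scaled between agonist-plus-DMSO and reference-inhibitor wells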
RUN PARAMETERS: read-out: TLR8 IC50; HEK-Blue cells overexpressing human TLR8, R848 15.9 μM stimulation, SEAP reporter
METRIC: IC50

Qu. // returns reported IC50 for input COc1cc(-c2[nH]c3ccc(N4CC(NCC(=O)N(C)C)C4)nc3c2C(C)C)cn2ncnc12 [Example 27]
Ans. > 3120 nM

Qu. // returns reported IC50 for input Cc1cc(-c2[nH]c3ccc(C4CCC(N5CC6(COC6)C5)CC4)nc3c2C(C)C)cc(C)n1 (centres unmarked) [Example 283]
Ans. 1.4 nM

Qu. // returns reported IC50 for input C#CCNC1CCC(c2ccc3[nH]c(-c4cn5ncnc5c(C)c4C)c(C(C)C)c3n2)CC1 (centres unmarked) [Example 371]
Ans. 14 nM

* * *

As shown below, each of these compounds has a reported log10(IC50) value.
STUDY TARGET: human TLR8 (Homo sapiens (Human))
EXPERIMENTAL PROTOCOL: TLR8 inhibition reporter assay (HEK-Blue SEAP)
RUN PARAMETERS: read-out: TLR8 IC50; HEK-Blue cells overexpressing human TLR8, SEAP reporter, R848 15.9 μM
The common logarithm of IC50 in nM is what is listed.

Would you please look over these solved cases?
{"COMPOUND": "Cc1c(-c2[nH]c3ccc(N4C[C@@H](C)NC[C@@H]4C)nc3c2C(C)C)cn2ncnc2c1C", "STUDY TARGET": "human TLR8 (Homo sapiens (Human))", "log10(IC50)": -0.26}
{"COMPOUND": "CCN(CC(=O)N(C)C)C1CCC(c2nc3c(C(C)C)c(-c4cn5ncnc5c(C)c4C)[nH]c3cc2F)CC1 (centres unmarked) [Example 508]", "STUDY TARGET": "human TLR8 (Homo sapiens (Human))", "log10(IC50)": 0.52}
{"COMPOUND": "Cc1c(-c2[nH]c3ccc(C4CCC(NCCS(C)(=O)=O)CC4)nc3c2C(C)C)cn2ncnc2c1C (centres unmarked) [Example 450]", "STUDY TARGET": "human TLR8 (Homo sapiens (Human))", "log10(IC50)": -0.15}

Qu. Record Cc1c(-c2[nH]c3ccc(C4CCNCC4)nc3c2C(C)C)cn2ncnc2c1C : what is its log10(IC50) with human TLR8 (Homo sapiens (Human))?
Ans. 0.11

Qu. Record Cc1c(-c2[nH]c3ccc(N4C[C@H](C)N(C(=O)CN(C)C)C[C@@H]4C)nc3c2C(C)C)cn2ncnc2c1C : what is its log10(IC50) with human TLR8 (Homo sapiens (Human))?
Ans. 0.51

* * *

STUDY TARGET: human TLR9 (Homo sapiens (Human))
Sequence (Q9NR96 26-1032): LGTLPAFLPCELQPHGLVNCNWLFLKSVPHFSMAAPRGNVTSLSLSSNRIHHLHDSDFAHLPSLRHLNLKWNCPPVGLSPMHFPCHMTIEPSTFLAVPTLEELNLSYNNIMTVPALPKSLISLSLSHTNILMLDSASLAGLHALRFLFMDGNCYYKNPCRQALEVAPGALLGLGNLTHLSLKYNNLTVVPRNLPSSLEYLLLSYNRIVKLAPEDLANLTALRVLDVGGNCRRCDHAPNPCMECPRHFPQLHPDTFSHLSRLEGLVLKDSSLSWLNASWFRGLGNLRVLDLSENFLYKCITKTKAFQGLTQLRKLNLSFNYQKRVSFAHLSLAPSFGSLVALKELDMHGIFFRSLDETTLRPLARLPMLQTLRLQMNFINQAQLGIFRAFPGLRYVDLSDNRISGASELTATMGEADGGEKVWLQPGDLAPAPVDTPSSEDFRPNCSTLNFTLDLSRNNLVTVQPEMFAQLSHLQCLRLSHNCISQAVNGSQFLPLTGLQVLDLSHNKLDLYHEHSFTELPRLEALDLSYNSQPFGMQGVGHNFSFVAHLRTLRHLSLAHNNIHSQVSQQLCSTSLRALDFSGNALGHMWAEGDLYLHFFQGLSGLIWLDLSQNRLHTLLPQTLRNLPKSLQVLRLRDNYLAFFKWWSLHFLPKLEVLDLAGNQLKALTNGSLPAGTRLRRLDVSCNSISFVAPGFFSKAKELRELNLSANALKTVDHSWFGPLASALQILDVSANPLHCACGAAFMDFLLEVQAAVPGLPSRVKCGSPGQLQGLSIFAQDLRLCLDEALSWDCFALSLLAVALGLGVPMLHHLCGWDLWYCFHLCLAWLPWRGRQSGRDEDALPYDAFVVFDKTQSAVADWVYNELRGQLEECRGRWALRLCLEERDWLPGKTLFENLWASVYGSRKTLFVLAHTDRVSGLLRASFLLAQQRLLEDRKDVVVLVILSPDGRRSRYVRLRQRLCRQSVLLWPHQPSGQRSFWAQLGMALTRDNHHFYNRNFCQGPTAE
EXPERIMENTAL PROTOCOL: TLR9 inhibition reporter assay (HEK-Blue SEAP)
RUN PARAMETERS: read-out: TLR9 IC50; HEK-Blue cells overexpressing human TLR9, SEAP reporter, ODN2006 5 nM
METRIC: pIC50
The meaning of pIC50 here: minus log10 of the concentration in molar units.

Would you please look over these solved cases?
{"COMPOUND": "Cc1c(-c2[nH]c3ccc(C4CNCCO4)nc3c2C(C)C)cn2ncnc2c1C (stereo not drawn)", "pIC50": 5.04}
{"COMPOUND": "Cc1c(-c2[nH]c3ccc(N4[C@@H](C)CN(C(=O)CN(C)C)C[C@@H]4C)nc3c2C(C)C)cn2ncnc2c1C", "pIC50": 4.99}
{"COMPOUND": "Cc1cc2[nH]c(-c3cc(C)c4ncnn4c3)c(C(C)C)c2nc1C1CCNCC1", "pIC50": 6.11}

Qu. Record COc1cc(-c2[nH]c3ccc(C4CC(N)C4)nc3c2C(C)C)cn2ncnc12 (stereo not drawn) : what is its pIC50 with human TLR9 (Homo sapiens (Human))?
Ans. 6.65

Qu. Record COc1cc(-c2[nH]c3ccc(CCC4CN(C5COC5)C4)nc3c2C(C)C)cn2ncnc12 : what is its pIC50 with human TLR9 (Homo sapiens (Human))?
Ans. 5.63

Qu. Record Cc1c(-c2[nH]c3ccc(C4CN(CC(C)(C)O)C4)nc3c2C(C)C)cn2ncnc2c1C : what is its pIC50 with human TLR9 (Homo sapiens (Human))?
Ans. 5.31
